Biological target: Hexose transporter 1 (Plasmodium falciparum)
Experiment: ST_JUDE_LEISH: Cytotoxicity at 2uM final concentration against transgenic Leishmania Mexicana promastigotes LmPfHT that are glucose transport deficient and complemented with the Plasmodium falciparum hexose transporter. Activity is measured by DNA content using SYBR green in vitro
Type: functional
Metric: inhibition (%)
Give the value, in units of %, as a plain number.

>>> print(df.to_string())
                                   molecule  endpoint_result
0  CC(C)C[C@H](NC(=O)c1ccc(OCCN2CCOCC2)cc1)C(=O)N[C@H](/C=N/N1CCN(C)C1=O)CCc1ccccc1             5.16
1  O=C(Nc1ccc(-c2cccc(-c3nc4cc(C(F)(F)F)ccc4[nH]3)c2)cc1)c1ccncc1             1.99
2  CC1CCN(CC[C@H]2CCCN2S(=O)(=O)c2cccc(NC(=O)c3ccc(-c4ccccc4)cc3)c2)CC1             1.72
3  CC1(C)[C@H]2CC[C@@H](CNc3nc(NCCc4c[nH]cn4)nc(Nc4ccc(Oc5ccccc5)cc4)n3)[C@@H]1C2            -1.54
4  CC1CCC(C[C@@H](C(=O)N[C@H](C(=O)Nc2nccs2)[C@@H](C)O)[C@H](CCC(F)(F)F)N(O)C=O)CC1 (some centres undefined)            -2.34

Form field: reported inhibition of `O=C(NCCCCN1CCN(CC=Cc2ccccc2)CC1)c1ccc(NC(=O)c2cc(Cl)cc(Cl)c2)cc1`
-0.05

Field request: inhibition | item: `CN1CCCN(Cc2cccc(-c3cccc(NS(=O)(=O)c4cccc5cccnc45)c3)c2)CC1`
10.8

----------
Below, each entry is listed with its recorded inhibition.
Molecular target: Hexose transporter 1 (Plasmodium falciparum) (UniProt O97467)
Test: ST_JUDE_LEISH: Cytotoxicity at 2uM final concentration against transgenic Leishmania Mexicana promastigotes LmPfHT that are glucose transport deficient and complemented with the Plasmodium falciparum hexose transporter. Activity is measured by DNA content using SYBR green in vitro
Type: functional
Write the number in % without appending the unit.

>>> print(df.to_string())
                                   compound  unit_abbreviation  endpoint_result
0  Cc1c2ccncc2c(C)c2c1[nH]c1cc(Cc3ccccc3)c(O)cc12                  %              4.1
1  CN(C)CCCn1cncc1-c1ccc2ncnc(Nc3ccc(OCc4ccccc4)cc3)c2c1                  %             6.87
2  Cc1nnc(NC(=O)c2cn(-c3ccccc3)nc2-c2ccccc2C)o1                  %             2.78
3  COc1ccccc1C(=O)Nc1ccc(Nc2nc(C)cc(N3CCOCC3)n2)cc1                  %              4.3
4  Cc1cccc(C)c1N1CCN(C2CCC(NC(=O)/C=C/c3ccccc3)CC2)CC1 (stereo not given)                  %             1.21

For the compound shown here, `COc1ccc(OC)c(-c2ccc(=O)n(CC(=O)Nc3cccc4ccccc34)n2)c1` , give the reported inhibition.
11.6

Any idea what its inhibition is? The compound is `COc1ccc(NC(=O)c2ccc(-c3cc(NC(=O)c4ccnc(N5CCCC5)c4)ccc3C)s2)cc1N1CCN(C)CC1`
0.73

Quick one: inhibition for `Fc1ccc2[nH]c(-c3cccc(-c4ccc(CNCCc5ccncc5)cc4)c3)nc2c1` ?
12.6

inhibition for CN1CCCC1CCCOC(=O)c1ccc(N)cc1 (stereo not given) ?
3.07

Give the measured inhibition of `O=[N+]([O-])c1ccc(Nc2nc(N/N=C/c3cc(Cl)cc(Cl)c3O)nc(Nc3ccccc3)n2)cc1` .
2.61
